Measured kon accompanies every entry in the list below.
- TARGET: feline FcRn (FCN-F82W3, Acrobiosystems) (feline)
- ASSAY_PROTOCOL: SPR Carterra, IgG coupled, pH 6.0
Value expressed in M⁻¹ s⁻¹; do not type the unit.

{"BINDER": "anti-NGF feline IgG1a, Fc variant S428H (antibody, part only; not given: anti-NGF variable domains, light chain, not shown: another chain or arm of the molecule; small tags and cut ends) Fc: PPEMLGGPSIFIFPPKPKDTLSISRTPEVTCLVVDLGPDDSDVQITWFVDNTQVYTAKTSPREEQFNSTYRVVSVLPILHQDWLKGKEFKCKVNSKSLPSPIERTISKAKGQPHEPQVYVLPPAQEELSRNKVSVTCLIKSFHPPDIAVEWEITGQPEPENNYRTTPPQLDSDGTYFVYSKLSVDRSHWQRGNTYTCSVHHEALHSHHTQKSLTQSPGK", "kon, M⁻¹ s⁻¹": 389000}

# input for lookup
Q: Name the recorded kon for anti-NGF feline IgG1a, Fc variant R334D, T437L (antibody, part only; not given: anti-NGF variable domains, light chain, not shown: another chain or arm of the molecule; small tags and cut ends) Fc: PPEMLGGPSIFIFPPKPKDTLSISRTPEVTCLVVDLGPDDSDVQITWFVDNTQVYTAKTSPREEQFNSTYRVVSVLPILHQDWLKGKEFKCKVNSKSLPSPIEDTISKAKGQPHEPQVYVLPPAQEELSRNKVSVTCLIKSFHPPDIAVEWEITGQPEPENNYRTTPPQLDSDGTYFVYSKLSVDRSHWQRGNTYTCSVSHEALHSHHLQKSLTQSPGK .
A: 457000
